Molecular target: recombinant 15-PGDH protein (Homo sapiens (Human))
Sequence (P15428 whole entry): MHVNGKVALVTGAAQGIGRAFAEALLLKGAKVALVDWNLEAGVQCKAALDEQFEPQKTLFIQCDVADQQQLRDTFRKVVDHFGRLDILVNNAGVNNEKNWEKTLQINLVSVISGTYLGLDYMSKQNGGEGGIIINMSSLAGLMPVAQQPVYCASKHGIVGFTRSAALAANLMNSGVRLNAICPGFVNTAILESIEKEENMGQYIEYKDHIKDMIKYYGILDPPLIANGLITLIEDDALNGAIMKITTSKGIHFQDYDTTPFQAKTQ
Experiment: Inhibition of enzymatic activity of recombinant 15-PGDH in vitro;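 further: activity of recombinant human 15-PGDH assayed in vitro using PGE2 as the substrate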
Type: biochemical
Settings: read-out: Enzyme inhibition % ([…]), Table 18; […] compound; read-out: Enzyme inhibition % (2.5 μM)
Recorded metric: inhibition at […]

[
  {
    "Compound": "CCc1ccc(N(CC(=O)Nc2cccnc2)S(=O)(=O)c2ccccc2)cc1",
    "Target or system": "recombinant 15-PGDH protein (Homo sapiens (Human))",
    "Meas value": "9.28%"
  },
  {
    "Compound": "COc1ccc(N(CC(=O)Nc2cccnc2)S(=O)(=O)c2ccccc2)cc1",
    "Target or system": "recombinant 15-PGDH protein (Homo sapiens (Human))",
    "Meas value": "10.8%"
  },
  {
    "Compound": "COc1ccc(OC)c(N(CC(=O)Nc2cccnc2)S(=O)(=O)c2ccc(OC)c(OC)c2)c1",
    "Target or system": "recombinant 15-PGDH protein (Homo sapiens (Human))",
    "Meas value": "31.8%"
  },
  {
    "Compound": "COc1ccc(N(CC(=O)Nc2cccnc2)S(=O)(=O)c2ccccc2)c(OC)c1",
    "Target or system": "recombinant 15-PGDH protein (Homo sapiens (Human))",
    "Meas value": "23.5%"
  }
]
